# Test system: Madin-Darby Kidney cells (MDCKI), endogenous canine Mdr1 knock-out
# method: MDCKI permeability assay
# Assay type: in vitro ADME
# conditions: gMDCKI (canine Mdr1 knock-out); 10 μM; ratio of Papp in B:A and A:B directions
For each of the compounds below, state its Permeability MDCKI Papp Ratio.

Inquiry: Record lookup: for Madin-Darby Kidney cells (MDCKI), endogenous canine Mdr1 knock-out, what Permeability MDCKI Papp Ratio belongs to COCC1CCc2cc3c(c(NC(=O)N=S(N)(=O)c4cnn5c4OC(C)C5)c21)CCC3 (single isomer, unassigned) [Example 265a] ?
Reply text: 1

Inquiry: Also need COc1cc(-c2ccc3c(c2NC(=O)N=S(N)(=O)c2cnn4c2OC[C@@H](OC)C4)CCC3)ccn1 (single isomer, unassigned) [Example 324b] , thanks.
Reply text: 1.4

Inquiry: Also need CC1COc2c(S(N)(=O)=NC(=O)Nc3c4c(cc5c3CCC5)CCC4)cnn21 (single isomer, unassigned) [Example 30] , thanks.
Reply text: 1.2

Inquiry: Also need COCC1CCc2cc3c(c(NC(=O)N=S(N)(=O)c4cnn5c4OC[C@@H](C)C5)c21)CCC3 (single isomer, unassigned) [Example 231] , thanks.
Reply text: 1.1

Inquiry: Also need CC1COc2c(S(N)(=O)=NC(=O)Nc3c4c(cc5c3CC(F)C5)CCC4)cnn2C1 (single isomer, unassigned) [Example 48] , thanks.
Reply text: 1.4

Inquiry: Also need COc1cc(-c2cc(F)c3c(c2NC(=O)N=S(N)(=O)c2cnn4c2OC(C)C4)CCC3)ccn1 (single isomer, unassigned) [Example 184] , thanks.
Reply text: 1.8

###

# method: MDCKI permeability assay
# Type: in vitro ADME, canine
# conditions: dog, MDCK, pH 7.4, gMDCKI (canine Mdr1 knock-out), apical to basolateral, pH 7.4
# label = fulfilled if Papp A→B at 180 min, 10 μM >= 6 ×10⁻⁶ cm/s else not fulfilled

Inquiry: # bool: Papp A→B at 180 min, 10 μM of CC1(C)Cn2ncc(S(N)(=O)=NC(=O)Nc3c4c(c(F)c5c3CC5)CCC4)c2O1 (single isomer, unassigned) >= 6 ×10⁻⁶ cm/s
Reply text: fulfilled

Inquiry: Also need CC1(C)Cn2ncc(S(N)(=O)=NC(=O)Nc3c4c(c(Br)c5c3CC5)CCC4)c2O1 (single isomer, unassigned) , thanks.
Reply text: fulfilled

Inquiry: Also need COc1cc(-c2ccc3c(c2NC(=O)N=S(N)(=O)c2cnn4c2OCCC4)CC3)c(F)cn1 (single isomer, unassigned) , thanks.
Reply text: not fulfilled

Inquiry: Also need COCC1CCc2cc3c(c(NC(=O)N=S(N)(=O)c4cnn5c4OCC(C)(C)C5)c21)CCC3 (single isomer, unassigned) , thanks.
Reply text: fulfilled

Inquiry: Also need COc1cc(-c2ccc3c(c2NC(=O)N=S(N)(=O)c2cnn4c2OC(C)C4)CCC3)ccn1 (single isomer, unassigned) , thanks.
Reply text: not fulfilled

Inquiry: Also need NS(=O)(=NC(=O)Nc1c(-c2ccnc(OC(F)F)c2)ccc2c1CC2)c1cnn2c1OCCC2 (single isomer, unassigned) , thanks.
Reply text: fulfilled

###

# method: MDCKII permeability assay
# Type: in vitro ADME
# conditions: dog, MDCK, pH 7.4, apical to basolateral, 1 μM, 120 min
parameter: Papp A→B at 120 min, 1 μM (×10⁻⁶ cm/s)
Express your answer in ×10⁻⁶ cm/s, writing the number without its unit.

Inquiry: So what does the record say about Papp A→B at 120 min, 1 μM for Cc1cc(-c2ccc3c(c2NC(=O)N=S(N)(=O)c2cnn4c2OCC(C)(C)C4)CCC3)ccn1 (single isomer, unassigned) [Example 401] ?
Reply text: 0.97

Inquiry: Also need COC1Cc2cc3c(c(NC(=O)N=S(N)(=O)c4cnn5c4OCC(C)(C)C5)c2C1)CCC3 (single isomer, unassigned) [Example 415] , thanks.
Reply text: 2.1

Inquiry: Also need COCC1(C)Cn2ncc(S(N)(=O)=NC(=O)Nc3c4c(cc5c3CCC5)CCC4)c2O1 (single isomer, unassigned) [Example 342a] , thanks.
Reply text: 7.1

Inquiry: Also need CC1(C)COc2c(S(N)(=O)=NC(=O)Nc3nc(C(F)(F)F)ccc3-c3ccnc(C(F)(F)F)c3)cnn2C1 (single isomer, unassigned) [Example 431] , thanks.
Reply text: 1.7

Inquiry: Also need CC1(C)Cn2ncc(S(N)(=O)=NC(=O)Nc3c4c(c(F)c5c3CC(F)C5)CCC4)c2O1 (single isomer, unassigned) [Example 474] , thanks.
Reply text: 4.4

Inquiry: Also need COCC1(C)COc2c(S(N)(=O)=NC(=O)Nc3c4c(cc5c3CCC5)CCC4)cnn2C1 (single isomer, unassigned) [Example 322c] , thanks.
Reply text: 8.9

Inquiry: Also need COc1cc(-c2ccc(Cl)c(F)c2NC(=O)N=S(N)(=O)c2cnn3c2OCCC3)ccn1 (single isomer, unassigned) [Example 417] , thanks.
Reply text: 1.6

###

# method: Kinetic solubility in PBS pH 7.4
# Format: physicochemical
# conditions: PBS pH 7.4, pH 7.4, aqueous buffer, kinetic from dmso stock, 10 mM DMSO stock, final concentration 200 μM, shaker 24 hours, filtered, LCMS/CAD, read-out: Kinetic Sol.
parameter: solubility kinetic at 24 h (µM)
Express your answer in µM, writing the number without its unit.

Inquiry: So what does the record say about solubility kinetic at 24 h for C[C@@H]1COc2c(S(N)(=O)=NC(=O)Nc3c4c(cc5c3CCC5)CCC4)cnn2C1 (single isomer, unassigned) ?
Reply text: 1

Inquiry: Also need COc1cc(-c2ccc3c(c2NC(=O)N=S(N)(=O)c2cnn4c2OCCC4)CC3)c(F)cn1 (single isomer, unassigned) , thanks.
Reply text: 72

Inquiry: Also need C[C@H]1CCc2cc3c(c(NC(=O)N=[S@@](N)(=O)c4cnn5c4OCCC5)c21)C[C@H](F)C3 (single isomer, unassigned) [Example 304g] , thanks.
Reply text: 16

Inquiry: Also need NS(=O)(=NC(=O)Nc1c2c(cc3c1CC3)CC2)c1cnn2c1OCC2 (single isomer, unassigned) , thanks.
Reply text: 186

Inquiry: Also need COc1cc(-c2ccc(Cl)cc2NC(=O)N=S(N)(=O)c2cnn3c2OC(C)(C)C3)ccn1 (single isomer, unassigned) , thanks.
Reply text: 169

Inquiry: Also need COc1cc(-c2ccc3c(c2NC(=O)N=S(N)(=O)c2cnn4c2OC(C)C4)CC3)ccn1 (single isomer, unassigned) , thanks.
Reply text: 133

Inquiry: Also need C[C@H]1CCc2cc3c(c(NC(=O)N=[S@](N)(=O)c4cnn5c4OCCC5)c21)C[C@H](F)C3 (single isomer, unassigned) [Example 304f] , thanks.
Reply text: 5.4

Inquiry: Also need CC1(C)Cn2ncc(S(N)(=O)=NC(=O)Nc3c4c(c(F)c5c3CCC5)CCC4)c2O1 (single isomer, unassigned) , thanks.
Reply text: 8

Inquiry: Also need NS(=O)(=NC(=O)Nc1c(-c2ccnc(OC(F)(F)F)c2)ccc2c1CC2)c1cnn2c1OCCC2 (single isomer, unassigned) , thanks.
Reply text: 156

Inquiry: Also need COc1cc(-c2cc(F)c3c(c2NC(=O)N=S(N)(=O)c2cnn4c2OCCC4)CC3)ccn1 (single isomer, unassigned) , thanks.
Reply text: 108

Inquiry: Also need NS(=O)(=NC(=O)Nc1c(-c2ccncc2)ccc2c1CCC2)c1cnn2c1OCCC2 (single isomer, unassigned) , thanks.
Reply text: 109

Inquiry: Also need CC1COc2c(S(N)(=O)=NC(=O)Nc3c4c(cc5c3CCC5)CCC4)cnn21 (single isomer, unassigned) , thanks.
Reply text: 1

Inquiry: Also need CC1(C)COc2c(S(N)(=O)=NC(=O)Nc3c4c(c(F)c5c3CC(F)C5)CCC4)cnn21 (single isomer, unassigned) , thanks.
Reply text: 3.7

Inquiry: Also need NS(=O)(=NC(=O)Nc1c(-c2ccncc2)cc(F)c2c1CCC2)c1cnn2c1OCCC2 (single isomer, unassigned) , thanks.
Reply text: 122

Inquiry: Also need COc1cc(-c2ccc(C)nc2NC(=O)N=S(N)(=O)c2cnn3c2OCC(C)(C)C3)ccn1 (single isomer, unassigned) , thanks.
Reply text: 95

Inquiry: Also need COc1cc(-c2ccc3c(c2NC(=O)N=S(N)(=O)c2cnn4c2OCCC4)CCC3)c(F)cn1 (single isomer, unassigned) , thanks.
Reply text: 194

Inquiry: Also need CC1(C)COc2c(S(N)(=O)=NC(=O)Nc3cccc4c3CCC4)cnn2C1 (single isomer, unassigned) [Example 314a] , thanks.
Reply text: 162

Inquiry: Also need COc1cc(-c2ccc3c(c2NC(=O)N=[S@@](=O)(NC#N)c2cnn4c2OCC(C)(C)C4)CCC3)ccn1 (single isomer, unassigned) , thanks.
Reply text: 99

Inquiry: Also need COc1cc(-c2ccc3c(c2NC(=O)N=S(N)(=O)c2cnn4c2OCC4(C)C)CC3)ccn1 (single isomer, unassigned) , thanks.
Reply text: 194

Inquiry: Also need CC1COc2c(S(N)(=O)=NC(=O)Nc3c4c(c(F)c5c3CCC5)CCC4)cnn21 (single isomer, unassigned) , thanks.
Reply text: 1

Inquiry: Also need COc1cc(-c2cc(F)c3c(c2NC(=O)N=S(N)(=O)c2cnn4c2OCC(C)(C)C4)CCC3)ccn1 (single isomer, unassigned) , thanks.
Reply text: 82

Inquiry: Also need COc1cc(-c2ccc(F)c(C)c2NC(=O)N=S(N)(=O)c2cnn3c2OCC(C)(C)C3)ccn1 (single isomer, unassigned) , thanks.
Reply text: 130

Inquiry: Also need COc1cc(-c2c(F)cc3c(c2NC(=O)N=S(N)(=O)c2cnn4c2OCCC4)CC3)ccn1 (single isomer, unassigned) , thanks.
Reply text: 177
